Just for reference, patent US8791130B2 is where these values come from.

# Test target: LRRK2 (Homo sapiens (Human), UniProt Q5S007, G2019S)
# Sequence (Q5S007 970-2527 G2019S): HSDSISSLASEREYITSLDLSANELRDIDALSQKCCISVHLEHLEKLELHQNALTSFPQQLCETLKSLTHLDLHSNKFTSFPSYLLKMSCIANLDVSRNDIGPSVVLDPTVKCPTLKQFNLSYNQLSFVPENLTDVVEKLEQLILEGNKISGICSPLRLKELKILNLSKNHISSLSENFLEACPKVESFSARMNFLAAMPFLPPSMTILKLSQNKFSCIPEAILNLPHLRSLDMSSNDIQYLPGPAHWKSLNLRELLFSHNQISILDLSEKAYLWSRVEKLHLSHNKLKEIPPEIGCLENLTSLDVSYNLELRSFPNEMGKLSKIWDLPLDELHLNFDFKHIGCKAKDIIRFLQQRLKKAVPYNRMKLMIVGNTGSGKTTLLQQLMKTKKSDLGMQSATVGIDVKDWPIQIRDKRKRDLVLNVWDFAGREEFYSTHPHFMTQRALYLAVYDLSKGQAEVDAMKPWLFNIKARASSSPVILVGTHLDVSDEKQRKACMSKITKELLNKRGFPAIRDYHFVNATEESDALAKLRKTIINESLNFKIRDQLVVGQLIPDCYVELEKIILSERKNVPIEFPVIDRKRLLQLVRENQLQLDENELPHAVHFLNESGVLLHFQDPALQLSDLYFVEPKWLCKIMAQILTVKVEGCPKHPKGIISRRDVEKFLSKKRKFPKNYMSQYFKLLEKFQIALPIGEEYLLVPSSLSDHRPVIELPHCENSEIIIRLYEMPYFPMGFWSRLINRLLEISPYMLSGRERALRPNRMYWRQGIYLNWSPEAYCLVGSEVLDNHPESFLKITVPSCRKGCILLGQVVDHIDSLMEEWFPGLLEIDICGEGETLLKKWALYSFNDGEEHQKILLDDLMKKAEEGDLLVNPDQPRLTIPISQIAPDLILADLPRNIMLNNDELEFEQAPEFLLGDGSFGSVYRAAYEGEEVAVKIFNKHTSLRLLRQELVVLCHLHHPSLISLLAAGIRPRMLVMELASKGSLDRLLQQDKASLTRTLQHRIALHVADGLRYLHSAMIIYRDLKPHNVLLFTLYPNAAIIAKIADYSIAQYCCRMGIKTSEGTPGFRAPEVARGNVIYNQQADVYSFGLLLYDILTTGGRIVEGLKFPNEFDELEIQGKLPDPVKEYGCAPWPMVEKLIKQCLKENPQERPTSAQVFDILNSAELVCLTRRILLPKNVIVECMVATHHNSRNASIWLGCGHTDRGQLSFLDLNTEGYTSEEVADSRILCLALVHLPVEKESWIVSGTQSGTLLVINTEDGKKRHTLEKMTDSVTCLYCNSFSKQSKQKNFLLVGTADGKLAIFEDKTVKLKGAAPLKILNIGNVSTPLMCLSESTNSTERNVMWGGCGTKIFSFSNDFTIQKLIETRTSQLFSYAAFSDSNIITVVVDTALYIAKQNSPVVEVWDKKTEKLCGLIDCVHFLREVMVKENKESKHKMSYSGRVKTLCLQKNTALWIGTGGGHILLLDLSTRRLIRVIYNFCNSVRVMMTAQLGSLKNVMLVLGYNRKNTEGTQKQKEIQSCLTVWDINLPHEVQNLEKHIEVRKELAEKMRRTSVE
# Method description: In Vitro LRRK2 LabChip Assay (LRRK2 Ki)
Ki for assorted compounds
Please give a number only; it is taken to be in nM.

Reference set, count: 6
1. CNc1nc(Nc2cc(OC)c(-c3ccnn3C)cc2Cl)ncc1C(F)(F)F : 5
2. CNc1nc(Nc2cc(OC)c(-c3cncn3C)cc2Cl)ncc1C(F)(F)F : 3
3. CNc1nc(Nc2cc(OC)c(-c3cnn(C)c3)cc2Cl)ncc1C(F)(F)F : 11
4. CNc1nc(Nc2cc(OC)c(-c3c(C)nn(C)c3C)cc2Cl)ncc1C(F)(F)F : 3
5. CNc1nc(Nc2ccc(-n3nc(C)cc3COC)cc2OC)ncc1C(F)(F)F : 10
6. CNc1nc(Nc2cc(C)c(-n3nnnc3C)cc2OC)ncc1C(F)(F)F : 1

-- ask # lookup: Ki of `CNc1nc(Nc2ccc(-c3nnn(C)n3)cc2OC)ncc1C(F)(F)F`
-- reply 10

-- ask Next entry: `CNc1nc(Nc2ccc(-n3cncn3)cc2OC)ncc1C(F)(F)F`
-- reply 3

-- ask Another compound to check: `CNc1nc(Nc2ccc(-c3cnn(C)c3)cc2OC)ncc1Cl`
-- reply 2

###

# Test target: LRRK2 (Homo sapiens (Human), UniProt Q5S007, G2019S)
# Method description: In Vitro LRRK2 LabChip Assay (LRRK2 Ki)
Label TRUE when Ki is strictly below 4 nM; at or above that, label FALSE.

Some entries whose results are on file:
1) CNc1nc(Nc2cc(OC)c(-c3nnc(C)o3)cc2Cl)ncc1C(F)(F)F [Compound 7] : FALSE
2) CNc1nc(Nc2cc(F)c(-c3cnnn3C)cc2OC)ncc1C(F)(F)F [Compound 43] : TRUE
3) CNc1nc(Nc2ccc(-c3nc(C)no3)cc2Cl)ncc1Cl [Compound 34] : FALSE
4) CNc1nc(Nc2cc(OC)c(-c3nc(C)no3)cc2Cl)ncc1C(F)(F)F [Compound 31] : FALSE
5) CNc1nc(Nc2ccc(-c3cncn3C)cc2OC)ncc1C(F)(F)F [Compound 8] : TRUE
6) CCNc1nc(Nc2cc(F)c(-c3nnc(C)o3)cc2OC)ncc1C(F)(F)F [Compound 29] : FALSE
7) CNc1nc(Nc2cc(F)c(-c3cnn(C)c3C(=O)N(C)C)cc2OC)ncc1C(F)(F)F [Compound 41] : TRUE
8) CNc1nc(Nc2ccc(-c3cnoc3)cc2OC)ncc1Cl [Compound 14] : FALSE

-- ask Below 4 nM on Ki? Entry CNc1nc(Nc2ccc(-n3cnnn3)cc2OC)ncc1C(F)(F)F [Compound 27]
-- reply TRUE

-- ask Same thing, different compound: CNc1nc(Nc2ccc(-c3cnnn3C)cc2OC)ncc1Cl [Compound 23]
-- reply TRUE

-- ask Now try CNc1nc(Nc2ccc(-c3nnnn3C)cc2Cl)ncc1C(F)(F)F [Compound 2] .
-- reply FALSE

-- ask Follow-up entry: CNc1nc(Nc2ccc(-c3nnc(C)o3)cc2Cl)ncc1Cl [Compound 33]
-- reply FALSE

-- ask CNc1nc(Nc2ccc(-c3cnn(C)c3C)cc2OC)ncc1C(F)(F)F [Compound 39] ?
-- reply TRUE

-- ask Now the same for CNc1nc(Nc2ccc(-c3c(C)noc3C)cc2OC)ncc1C(F)(F)F [Compound 26]
-- reply TRUE

-- ask Next: CNc1nc(Nc2ccc(-c3cn(C)nc3C)cc2OC)ncc1C(F)(F)F [Compound 38]
-- reply TRUE

-- ask Can you check CNc1nc(Nc2cc(OC)c(-c3nc(C)no3)cc2Cl)ncc1Cl [Compound 36] next?
-- reply FALSE
